- Test system: CCRF-CEM
- assay-summary: Cytotoxicity against human CCRF-CEM assessed reduction in cell viability after 4 days by MTT assay
- Format: cell-based
- run-conditions: ccrf-cem, 96 h
readout: CC50 (µM)
Just the number in µM, nothing appended.

Query block: Would you mind telling me what CC50 value was observed for C[C@@]1(O)[C@H](O)[C@@H](CO)O[C@H]1n1ccc(N)nc1=O ?
Result block: 22

---

- assay-summary: Inhibition of human DNA polymerase gamma using 5-end radiolabeled 24nt to 48nt DNA as primer template after 120 mins in presence of dCTP/dGTP/dTTP/dATP by PAGE analysis
pIC50: −log10 of the molar value.
readout: pIC50

Query block: Query (compound): C[C@@]1(F)[C@H](O)[C@@H](COP(=O)(O)OP(=O)(O)OP(=O)(O)O)O[C@H]1n1ccc(=O)[nH]c1=O ; field requested: pIC50
Result block: < 4.00

---

- assay-summary: Cardiotoxicity against human embryonic stem cell-induced ventricular cardiomyocytes administered on day 7 and measured on day 10 after 30 mins incubation by CellTiter Glo assay
- Assay type: toxicity, cell-based, Cardiac muscle cell
readout: IC50 at 3 days

1) CC(C)OC(=O)[C@H](C)N[P@](=O)(OC[C@H]1O[C@@H](n2ccc(=O)[nH]c2=O)[C@@](F)(Br)[C@@H]1O)Oc1ccccc1 (single isomer, unassigned)
> 100 µM

Turning to the following molecule.
Query block: What measured IC50 at 3 days goes with CC(C)OC(=O)[C@H](C)N[P@@](=O)(OC[C@H]1O[C@@H](n2ccc(=O)[nH]c2=O)C(F)(Br)C1O)Oc1ccccc1 (single isomer, unassigned) ?
Result block: > 100 µM

---

- assay-summary: Mitochondrial toxicity in human HepG2 cells assessed as reduction in cell viability after 14 days in presence of galactose supplemented media by ATP depletion assay
- Format: cell-based
readout: IC50 at 14 days

Query block: Returns the measured IC50 at 14 days for the input compound. Input: CC(C)OC(=O)[C@H](C)N[P@](=O)(OC[C@H]1O[C@@H](n2ccc(=O)[nH]c2=O)[C@@](F)(Br)[C@@H]1O)Oc1ccccc1 (single isomer, unassigned)
Result block: > 100 µM

---

Listed compounds paired with reported IC50 at 14 days
- assay-summary: Mitochondrial toxicity in human HepG2 cells assessed as reduction in cell viability after 14 days in presence of glucose supplemented media by ATP depletion assay
- Format: cell-based

Query block: # IC50 at 14 days lookup, item CC(C)OC(=O)[C@H](C)N[P@@](=O)(OC[C@H]1O[C@@H](n2ccc(=O)[nH]c2=O)C(F)(Br)C1O)Oc1ccccc1 (single isomer, unassigned)
Result block: > 100 µM

Query block: Another: CC(C)OC(=O)[C@H](C)N[P@](=O)(OC[C@H]1O[C@@H](n2ccc(=O)[nH]c2=O)[C@@](F)(Br)[C@@H]1O)Oc1ccccc1 (single isomer, unassigned)
Result block: > 100 µM

---

- System: Bone marrow cell
- assay-summary: Cytotoxicity against human bone marrow cells assessed as inhibition of colony-forming unit-granulocyte after 14 days by FACS analysis
- Assay type: cell-based
- run-conditions: 336 h
readout: pIC50
By convention, pIC50 is the negative base-10 log of a molar concentration.

Query block: Sample CC(C)OC(=O)[C@H](C)N[P@](=O)(OC[C@H]1O[C@@H](n2ccc(=O)[nH]c2=O)[C@@](F)(Br)[C@@H]1O)Oc1ccccc1 (single isomer, unassigned) — what was its pIC50?
Result block: 4.12

---

- Tested on: nuclear ribosomal-DNA level
- assay-summary: Mitochondrial toxicity in human HepG2 cells assessed as inhibition of nuclear ribosomal-DNA level at 50 uM followed by medium plus drugs replenishment every 3 to 4 days for 14 days relative to control
- Type: cell-based
readout: inhibition at 336 h, 50 µM (%)
Give a bare numeral; the unit % is implied.

1. CC(C)OC(=O)[C@H](C)NP(=O)(OC[C@H]1O[C@@H](n2ccc(=O)[nH]c2=O)[C@](F)(Br)[C@H]1O)Oc1ccccc1 (mixture of isomers)
40
2. CC(C)OC(=O)[C@H](C)N[P@](=O)(OC[C@H]1O[C@@H](n2ccc(=O)[nH]c2=O)[C@@](F)(Br)[C@@H]1O)Oc1ccccc1 (single isomer, unassigned)
72

# ---- query compound ----
Query block: Under nuclear ribosomal-DNA level: inhibition at 336 h, 50 µM value of CC(C)OC(=O)[C@H](C)N[P@](=O)(OC[C@H]1O[C@@H](n2ccc(=O)[nH]c2=O)[C@](C)(F)[C@@H]1O)Oc1ccccc1 [SOFOSBUVIR] ?
Result block: 58

---

- assay-summary: Stability in Beagle dog plasma assessed as compound remaining at 2 uM up to 2 hrs by LC-MS/MS analysis
- Assay type: ADME, cell-free, Canis lupus familiaris
- run-conditions: read-out: Stability
readout: remaining at 2 h, 2 µM (%)
The reply should contain only the number, in %.

Query block: Give the measured remaining at 2 h, 2 µM of CC(C)OC(=O)[C@H](C)NP(=O)(OC[C@H]1O[C@@H](n2ccc(=O)[nH]c2=O)[C@](F)(Br)[C@H]1O)Oc1ccccc1 (mixture of isomers) .
Result block: 100

---

The entries below are paired with their reported CC50 at 120 h.
- assay-summary: Cytotoxicity against human PBMC assessed reduction in cell viability after 5 days by MTT assay
- Format: cell-based
- run-conditions: PBMC

Examples from the recorded data:
1. CC(C)OC(=O)[C@H](C)N[P@@](=O)(OC[C@H]1O[C@@H](n2ccc(=O)[nH]c2=O)C(F)(Br)C1O)Oc1ccccc1 (single isomer, unassigned)
> 100 µM
2. CC(C)OC(=O)[C@H](C)N[P@](=O)(OC[C@H]1O[C@@H](n2ccc(=O)[nH]c2=O)[C@](C)(F)[C@@H]1O)Oc1ccccc1 [SOFOSBUVIR]
> 100 µM
3. CC(C)OC(=O)[C@H](C)N[P@](=O)(OC[C@H]1O[C@@H](n2ccc(=O)[nH]c2=O)[C@@](F)(Br)[C@@H]1O)Oc1ccccc1 (single isomer, unassigned)
> 100 µM
4. CC(C)OC(=O)[C@H](C)NP(=O)(OC[C@H]1O[C@@H](n2ccc(=O)[nH]c2=O)[C@](F)(Br)[C@H]1O)Oc1ccccc1 (mixture of isomers)
> 100 µM

Turning to the following molecule.
Query block: Could you tell me which CC50 at 120 h is on file for CC(C)OC(=O)[C@H](C)NP(=O)(OC[C@H]1O[C@@H](n2cnc3c(N)ncnc32)[C@](F)(Br)[C@H]1O)Oc1ccccc1 (stereo not given in full) ?
Result block: > 100 µM

---

- Test system: cytochrome c oxidase subunit 2 DNA level
- assay-summary: Mitochondrial toxicity in human HepG2 cells assessed as inhibition of cytochrome c oxidase subunit 2 DNA level at 50 uM followed by medium plus drugs replenishment every 3 to 4 days for 14 days relative to control
- Format: cell-based
readout: inhibition at 336 h, 50 µM (%)
Hi! Could you send only the number? It should be in %, unit omitted.

1. CC(C)OC(=O)[C@H](C)N[P@](=O)(OC[C@H]1O[C@@H](n2ccc(=O)[nH]c2=O)[C@@](F)(Br)[C@@H]1O)Oc1ccccc1 (single isomer, unassigned)
58
2. CC(C)OC(=O)[C@H](C)N[P@@](=O)(OC[C@H]1O[C@@H](n2ccc(=O)[nH]c2=O)C(F)(Br)C1O)Oc1ccccc1 (single isomer, unassigned)
31
3. CC(C)OC(=O)[C@H](C)N[P@](=O)(OC[C@H]1O[C@@H](n2ccc(=O)[nH]c2=O)[C@](C)(F)[C@@H]1O)Oc1ccccc1
44

Now for another entry.
Query block: Which inhibition at 336 h, 50 µM is listed for CC(C)OC(=O)[C@H](C)NP(=O)(OC[C@H]1O[C@@H](n2ccc(=O)[nH]c2=O)[C@](F)(Br)[C@H]1O)Oc1ccccc1 (mixture of isomers) ?
Result block: 39

---

- System: nuclear ribosomal-DNA level
- assay-summary: in vitro
- run-conditions: human, HepG2 cells
readout: inhibition at 336 h, 10 µM (%)
Write the answer as a number in %, unit excluded.

Query block: # value lookup — system nuclear ribosomal-DNA level, readout inhibition at 336 h, 10 µM, item Nc1ccn([C@H]2CC[C@@H](CO)O2)c(=O)n1 [ZALCITABINE]
Result block: 50

---

- assay-summary: Cytotoxicity against human HuH7 cells assessed reduction in cell viability after 3 to 5 days by MTT assay
- Type: cell-based, Huh-7
readout: CC50

1) CC(C)OC(=O)[C@H](C)N[P@](=O)(OC[C@H]1O[C@@H](n2ccc(=O)[nH]c2=O)[C@@](F)(Br)[C@@H]1O)Oc1ccccc1 (single isomer, unassigned)
> 10 µM
2) C[C@@]1(O)[C@H](O)[C@@H](CO)O[C@H]1n1ccc(N)nc1=O
> 100 µM
3) CC(C)OC(=O)[C@H](C)N[P@@](=O)(OC[C@H]1O[C@@H](n2ccc(=O)[nH]c2=O)C(F)(Br)C1O)Oc1ccccc1 (single isomer, unassigned)
> 10 µM
4) CC(C)OC(=O)[C@H](C)NP(=O)(OC[C@H]1O[C@@H](n2cnc3c(N)ncnc32)[C@](F)(Br)[C@H]1O)Oc1ccccc1 (stereo not given in full)
> 10 µM

Query block: So what's the measured CC50 for this one? CC(C)OC(=O)[C@H](C)N[P@](=O)(OC[C@H]1O[C@@H](n2ccc(=O)[nH]c2=O)[C@](C)(F)[C@@H]1O)Oc1ccccc1 [SOFOSBUVIR]
Result block: > 100 µM

Values were extracted from ChEMBL document CHEMBL4411318.
